- System: Trypanosoma brucei rhodesiense STIB900
- assay-name: Activity against Trypanosoma brucei rhodesiense STIB900 (Alamar Blue assay)
- Type: cell-based
- measurement-parameters: bloodstream forms of T. b. rhodesiense STIB 900, 70 h incubation
metric-name: IC50
Note to self: number, then unit, no commentary.

IN: Given the entry N#CC1(NC(=O)[C@H](Cc2ccc(OC(F)(F)F)c(Cl)c2)NC(c2nnc(-c3ccc(Br)cc3)o2)C(F)(F)F)CC1 (stereo partly shown) [Example 20] , report its measured IC50.
OUT: 16.1 µM
